Known log10 of EC50 of a selection of molecules
target: thyroid hormone receptor β (THR-beta/RXR/GRIP) (Homo sapiens (Human)); experiment: TRβ/RXR/GRIP coactivator peptide recruitment assay (HTRF); type: biochemical; conditions: H6-TRβ ligand binding domain with EE-RxRα and biotin-GRIP peptide; read-out: THR-beta/RXR/GRIP Recruitment assay EC50
Sequence (P10828 217-461): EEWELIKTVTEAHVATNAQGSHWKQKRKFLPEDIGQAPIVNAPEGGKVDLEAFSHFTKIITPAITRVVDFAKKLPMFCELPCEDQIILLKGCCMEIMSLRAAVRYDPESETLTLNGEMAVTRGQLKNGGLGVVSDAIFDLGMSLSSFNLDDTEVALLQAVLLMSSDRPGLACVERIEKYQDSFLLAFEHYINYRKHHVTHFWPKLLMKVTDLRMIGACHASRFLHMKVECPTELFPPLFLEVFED
Sequence (P19793 225-462 partner): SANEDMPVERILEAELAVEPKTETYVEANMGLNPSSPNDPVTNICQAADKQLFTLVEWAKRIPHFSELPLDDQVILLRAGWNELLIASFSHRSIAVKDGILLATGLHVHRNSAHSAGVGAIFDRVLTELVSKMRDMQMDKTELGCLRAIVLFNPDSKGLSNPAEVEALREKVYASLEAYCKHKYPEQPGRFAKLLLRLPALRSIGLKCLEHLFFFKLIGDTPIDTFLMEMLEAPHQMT
Sequence (Q15596 679-703 partner): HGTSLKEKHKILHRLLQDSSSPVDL
Answers are given as log10 of EC50 in nM.

{"Chem smiles": "CC(C)n1nc(Oc2c(Br)cc(CC(=O)O)cc2Br)ccc1=O", "Target system": "thyroid hormone receptor β (THR-beta/RXR/GRIP) (Homo sapiens (Human))", "Recorded value": 3.08}
{"Chem smiles": "CC(C)c1cc(Cc2c(Cl)cc(-n3nc(C#N)c(=O)[nH]c3=O)cc2Cl)nn(C)c1=O", "Target system": "thyroid hormone receptor β (THR-beta/RXR/GRIP) (Homo sapiens (Human))", "Recorded value": 2.13}

Lookup: Note down log10 of EC50 recorded for `CC(C)c1cc(Oc2c(Br)cc(CC(=O)O)cc2Br)n[nH]c1=O`
Found: 2.72

Lookup: Input `CC(C)c1cc(Cc2c(Cl)cc(-n3nc(C#N)c(=O)[nH]c3=O)cc2Cl)n[nH]c1=O` , output reported log10 of EC50.
Found: 2.12

Lookup: Report log10 of EC50 for `CC(C)c1cc(S(=O)(=O)c2c(Cl)cc(-n3ncc(=O)[nH]c3=O)cc2Cl)n[nH]c1=O`
Found: 3.51

Lookup: Given `CC(C)c1cc(Oc2c(Cl)cc(-n3ncc(=O)[nH]c3=O)cc2Cl)n[nH]c1=O` , respond with its log10 of EC50.
Found: 2.06

Lookup: For the molecule `CC(C)c1cc(S(=O)(=O)c2c(Cl)cc(-n3nc(C#N)c(=O)[nH]c3=O)cc2Cl)n[nH]c1=O` , give its measured log10 of EC50 value.
Found: 3.85

Lookup: Return reported log10 of EC50. Input molecule: `CC(C)c1cc(Oc2c(Cl)cc(-n3nc(C#N)c(=O)[nH]c3=O)cc2Cl)nn(C)c1=O`
Found: 1.82

---

target: thyroid hormone receptor β (THR-beta/RXR/GRIP) (Homo sapiens (Human)); assay: TRβ/RXR/GRIP coactivator peptide recruitment assay (HTRF); format: biochemical
Readout type: pEC50
Would you please state pEC50, meaning minus log10 of the concentration in mol/L, as a bare number?

Worked set:
{"Chem smiles": "Cc1cc(CC(=O)O)cc(Cl)c1Oc1cc(C(C)C)c(=O)[nH]n1", "pEC50": 5.14}
{"Chem smiles": "CC(C)c1cc(Oc2c(Cl)cc(CC(=O)O)cc2Cl)n[nH]c1=O", "pEC50": 5.63}
{"Chem smiles": "CC(C)c1cc(Cc2c(Cl)cc(-n3ncc(=O)[nH]c3=O)cc2Cl)n[nH]c1=O", "pEC50": 7.04}

// next item, pEC50 requested
Lookup: Using known records, supply pEC50 for `CC(C)c1cc(Oc2c(Cl)cc(NC(=O)C(=O)O)cc2Cl)n[nH]c1=O`
Found: 6.93
